System: Streptococcus sp. 'group A'
TEST METHOD NOTES: Streptococcus pyogenes SK(-)GAS viability under kanamycin – luminescence, BacTiterGlo, confirmation, counter-screen for streptokinase expression inhibitor project, dose response (AID 1900)
Type: functional, organism-based
Calls of active or inactive are those of the source. Cut-off read from the data, not from the text of the source: actives have a measured EC50 and inactives only a lower limit.
Consider the following compounds; for each one, report its EC50.

Query: What measured EC50 is associated with Cc1cccnc1Nc1nc(-c2ccccn2)cs1 on Streptococcus sp. 'group A'?
Reply: 1.1 µM (active)

Query: And for CSCC[C@H](NC(=O)c1nn(C)c(=O)c2ccccc12)c1nc2ccccc2[nH]1 ?
Reply: 1.06 µM (active)

Query: And for O=C1C(Nc2ccccc2)=C/C(=N/S(=O)(=O)c2cccs2)c2ccccc21 ?
Reply: 2.81 µM (active)

Query: And for O=C(COc1cccc(Oc2ccccc2)c1)Nc1ccc(SC(F)F)cc1 ?
Reply: 14.4 µM (active)
